Below, each of the compounds is paired with its reported minimal effective dose value.
- Tested on: mice
- assayNotes: Prevention of Reserpine-induced Hypothermia
- Format: in vivo
- experimentalSetup: Mus musculus, p.o., oral doses 24, 18 and 2 hours before 1 mg/kg i.v. reserpine, active = significant at p<0.05, read-out: Res Prev (lowest active dose)
I only need the number, in mg/kg, no unit after it.

Sample answers from the record:
[[record]]
structure = "Cc1nccn1CCOc1ccc(Cl)cc1"
resultvalue = 10

[[record]]
structure = "Cc1nccn1CCOc1ccc(Cl)cc1Cl"
resultvalue = 10

[[record]]
structure = "Cc1nccn1CCOc1ccccc1Cl"
resultvalue = 100

[[record]]
structure = "Cc1nccn1CCCOc1ccc(Cl)cc1"
resultvalue = 3


# minimal effective dose measured on mice for item Cc1nccn1CCOc1cccc(Cl)c1 = 100

# minimal effective dose measured on mice for item Cc1nccn1CCCCOc1ccc(Cl)cc1 = 100

# minimal effective dose measured on mice for item Cc1nccn1CCOc1ccc(F)cc1 = 100

# minimal effective dose measured on mice for item COc1ccc(OCCn2ccnc2C)cc1 = 10

====

Below, each of the molecules is paired with its reported ED100 value.
- Test system: mice
- assayNotes: Potentiation of the Effects of 5-Hydroxytryptophan (anti-convulsant activity of 5 HTP, electroshock threshold)
- Format: in vivo
- experimentalSetup: Mus musculus, po, dose increasing the elevation of electroshock threshold due to 5HTP by 100%, read-out: 5-HTP Potentiation, ED100
Structures can show the parent of a compound that is named as a salt.
I only need the number, in mg/kg, no unit after it.

Sample answers from the record:
[[record]]
molecule = "Cc1nccn1CCOc1cc(Cl)c(Cl)c(Cl)c1 [Example 17, maleate]"
property = "ED100"
resultvalue = 70

[[record]]
molecule = "Cc1nccn1CCOc1c(Cl)cccc1Cl [Example 14, maleate]"
property = "ED100"
resultvalue = 9

[[record]]
molecule = "Cc1nccn1CCOc1cccc(C(F)(F)F)c1 [Example 21, maleate]"
property = "ED100"
resultvalue = 26

[[record]]
molecule = "CCc1nccn1CCOc1ccc(Cl)cc1Cl [Example 23, maleate]"
property = "ED100"
resultvalue = 53

[[record]]
molecule = "Cc1nccn1CCOc1ccccc1"
property = "ED100"
resultvalue = 10

[[record]]
molecule = "Cc1nccn1CCOc1cc(Cl)cc(Cl)c1.O=C(O)/C=C\\C(=O)O"
property = "ED100"
resultvalue = 18

[[record]]
molecule = "Cc1cc(Cl)ccc1OCCn1ccnc1C [Example 18, maleate]"
property = "ED100"
resultvalue = 10

[[record]]
molecule = "Cc1nccn1CCOc1ccc(Br)cc1Br.O=C(O)/C=C\\C(=O)O"
property = "ED100"
resultvalue = 34

[[record]]
molecule = "Cc1nccn1CCOc1cccc(Cl)c1Cl [Example 12, maleate]"
property = "ED100"
resultvalue = 28

[[record]]
molecule = "Cc1nccn1CCOc1ccc(Cl)c(Cl)c1"
property = "ED100"
resultvalue = 12


Switching to the query record.
For reference, reported ED100 for Cc1nccn1CCOc1cc(Cl)ccc1Cl stands at 19
